# System: ST486
# experiment notes: SANGER: Inhibition of human ST486 cell growth in a cell viability assay.
# Format: functional, cell-based
measured attribute: IC50

molecule: CCn1c(-c2nonc2N)nc2cnc(Oc3cccc(NC(=O)c4ccc(OCCN5CCOCC5)cc4)c3)cc21 [GSK-269962A]
measured attribute: IC50
data value: > 2500 nM

molecule: CC(O)(CS(=O)(=O)c1ccc(F)cc1)C(=O)Nc1ccc(C#N)c(C(F)(F)F)c1 (configuration not stated) [BICALUTAMIDE]
measured attribute: IC50
data value: > 1020 nM

molecule: CC(C)=CC[C@@H](O)C1=CC(=O)c2c(O)ccc(O)c2C1=O
measured attribute: IC50
data value: < 62.5 nM

molecule: COc1cc(C)c(Sc2cnc(NC(=O)c3ccc(CNC(C)C(C)(C)C)cc3)s2)cc1C(=O)N1CCN(C(C)=O)CC1 (configuration not stated)
measured attribute: IC50
data value: > 10200 nM

molecule: Cc1[nH]c(/C=C2\C(=O)Nc3ccc(S(=O)(=O)Cc4c(Cl)cccc4Cl)cc32)c(C)c1C(=O)N1CCC[C@@H]1CN1CCCC1
measured attribute: IC50
data value: > 2000 nM

molecule: N#C/C(=C1/Nc2ccccc2S1)c1ccnc(NCCc2cccnc2)n1
measured attribute: IC50
data value: 1740 nM

molecule: CCNc1cc(N[C@H]2CC[C@@H](O)CC2)nc(Nc2ccc3c(ccn3Cc3ccccc3)c2)n1
measured attribute: IC50
data value: > 5120 nM

----------
# Test system: MDA-MB-157
# experiment notes: cells
# Type: functional, cell-based
# reported conditions: Homo sapiens
# Description: SANGER: Inhibition of human MDA-MB-157 cell growth in a cell viability assay.
measured attribute: IC50

compound: Cn1c(=O)n(-c2ccc(C(C)(C)C#N)cc2)c2c3cc(-c4cnc5ccccc5c4)ccc3ncc21 [DACTOLISIB]
measured attribute: IC50
data value: 0.0354 µM

compound: CO[C@@]12[C@H](COC(N)=O)C3=C(C(=O)C(C)=C(N)C3=O)N1C[C@@H]1N[C@@H]12 [MITOMYCIN]
measured attribute: IC50
data value: 2.19 µM

compound: CC(O)(CS(=O)(=O)c1ccc(F)cc1)C(=O)Nc1ccc(C#N)c(C(F)(F)F)c1 (centres undefined) [BICALUTAMIDE]
measured attribute: IC50
data value: > 1.02 µM

compound: CC(=O)c1c(C)c2cnc(Nc3ccc(N4CCNCC4)cn3)nc2n(C2CCCC2)c1=O [PALBOCICLIB]
measured attribute: IC50
data value: > 4 µM

----------
# System: T47D
# experiment notes: cells
# Type: functional, cell-based
# reported conditions: Homo sapiens
# Description: SANGER: Inhibition of human T47D cell growth in a cell viability assay.
Entries annotated with measured IC50

smiles structure: Cn1cc(/C=C2\C(=O)Nc3cccnc32)c2ccccc21
target under test: T47D
censoring qualifier: >
IC50 (nM): 2000
--
smiles structure: CC(=O)c1c(C)c2cnc(Nc3ccc(N4CCNCC4)cn3)nc2n(C2CCCC2)c1=O
target under test: T47D
censoring qualifier: =
IC50 (nM): 1680
--
smiles structure: O=c1[nH]c2ccccc2n1C1CCN(Cc2ccc(-c3nc4cc5[nH]cnc5cc4nc3-c3ccccc3)cc2)CC1
target under test: T47D
censoring qualifier: =
IC50 (nM): 516
--
smiles structure: CC[C@]1(O)C[C@@H]2CN(CCc3c([nH]c4ccccc34)[C@@](C(=O)OC)(c3cc4c(cc3OC)N(C)[C@H]3[C@@](O)(C(=O)OC)[C@H](OC(C)=O)[C@]5(CC)C=CCN6CC[C@]43[C@@H]65)C2)C1
target under test: T47D
censoring qualifier: =
IC50 (nM): 7.71
--
smiles structure: CCCS(=O)(=O)Nc1ccc(F)c(C(=O)c2c[nH]c3ncc(Cl)cc23)c1F
target under test: T47D
censoring qualifier: >
IC50 (nM): 10000
--
smiles structure: C/C(O)=C(\C#N)C(=O)Nc1cc(Br)ccc1Br
target under test: T47D;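 also: growth inhibition of human T47D cells, measured with a cell viability assay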
censoring qualifier: >
IC50 (nM): 16000

----------
# System: OC-314
# experiment notes: cells
# Assay type: functional, cell-based
# reported conditions: Homo sapiens
# Description: SANGER: Inhibition of human OC-314 cell growth in a cell viability assay.
pIC50: −log10 of the molar value.
Entries annotated with measured pIC50
measured attribute: pIC50

smiles structure: O=c1cc(N2CCOCC2)oc2c(-c3cccc4c3sc3ccccc34)cccc12
measured attribute: pIC50
data value: < 5.70

smiles structure: CC(=O)c1c(C)c2cnc(Nc3ccc(N4CCNCC4)cn3)nc2n(C2CCCC2)c1=O
measured attribute: pIC50
data value: < 5.40

smiles structure: Cn1cc(/C=C2\C(=O)Nc3cccnc32)c2ccccc21
measured attribute: pIC50
data value: < 5.70

smiles structure: CC[C@]1(O)C[C@@H]2CN(CCc3c([nH]c4ccccc34)[C@@](C(=O)OC)(c3cc4c(cc3OC)N(C)[C@H]3[C@@](O)(C(=O)OC)[C@H](OC(C)=O)[C@]5(CC)C=CCN6CC[C@]43[C@@H]65)C2)C1
measured attribute: pIC50
data value: 8.65

----------
# System: TE-8;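 also: growth inhibition of TE-8 cells, measured with a cell viability readout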
# experiment notes: cells
# Assay type: functional, cell-based
# reported conditions: Homo sapiens
# Description: SANGER: Inhibition of human TE-8 cell growth in a cell viability assay.
measured attribute: IC50 (nM)

molecule: COc1cc(C)c(Sc2cnc(NC(=O)c3ccc(CNC(C)C(C)(C)C)cc3)s2)cc1C(=O)N1CCN(C(C)=O)CC1 (centres undefined)
censoring qualifier: =
data value: 6440

molecule: Cc1n[nH]c2ccc(-c3cncc(OC[C@@H](N)Cc4c[nH]c5ccccc45)c3)cc12 [A-443654]
censoring qualifier: =
data value: 137

molecule: CC(O)(CS(=O)(=O)c1ccc(F)cc1)C(=O)Nc1ccc(C#N)c(C(F)(F)F)c1 (centres undefined) [BICALUTAMIDE]
censoring qualifier: >
data value: 1020

molecule: CO[C@@]12[C@H](COC(N)=O)C3=C(C(=O)C(C)=C(N)C3=O)N1C[C@@H]1N[C@@H]12 [MITOMYCIN]
censoring qualifier: =
data value: 35.9

----------
# System: ML-2
# experiment notes: cells
# Assay type: functional, cell-based
# reported conditions: Homo sapiens
# Description: SANGER: Inhibition of human ML-2 cell growth in a cell viability assay.
pIC50: −log10 of the molar value.
Entries annotated with measured pIC50

smiles structure: CO[C@@]12[C@H](COC(N)=O)C3=C(C(=O)C(C)=C(N)C3=O)N1C[C@@H]1N[C@@H]12
target under test: ML-2
pIC50: > 7.20
//
smiles structure: CC(=O)c1c(C)c2cnc(Nc3ccc(N4CCNCC4)cn3)nc2n(C2CCCC2)c1=O
target under test: ML-2
pIC50: 5.92
//
smiles structure: O=c1[nH]c2ccccc2n1C1CCN(Cc2ccc(-c3nc4cc5[nH]cnc5cc4nc3-c3ccccc3)cc2)CC1
target under test: ML-2
pIC50: < 5.59
//
smiles structure: NC(=O)c1ncn([C@@H]2O[C@H](COP(=O)(O)O)[C@@H](O)[C@H]2O)c1N
target under test: ML-2
pIC50: < 2.70
//
smiles structure: CCNc1cc(N[C@H]2CC[C@@H](O)CC2)nc(Nc2ccc3c(ccn3Cc3ccccc3)c2)n1
target under test: ML-2
pIC50: < 5.29
//
smiles structure: N#C/C(=C1/Nc2ccccc2S1)c1ccnc(NCCc2cccnc2)n1
target under test: ML-2
pIC50: < 5.10

----------
Entries annotated with measured pIC50
# Tested on: NCI-H2227;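 also: growth inhibition of the human cell line, read out with a cell viability assay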
# experiment notes: cells
# Assay type: functional, cell-based
# reported conditions: Homo sapiens
# Description: SANGER: Inhibition of human NCI-H2227 cell growth in a cell viability assay.
pIC50: −log10 of the molar value.
measured attribute: pIC50

molecule: CCNC(=O)c1noc(-c2cc(C(C)C)c(O)cc2O)c1-c1ccc(CN2CCOCC2)cc1
measured attribute: pIC50
data value: < 6.59
//
molecule: C/C(O)=C(\C#N)C(=O)Nc1cc(Br)ccc1Br
measured attribute: pIC50
data value: < 4.80
//
molecule: CCn1c(-c2nonc2N)nc2cnc(Oc3cccc(NC(=O)c4ccc(OCCN5CCOCC5)cc4)c3)cc21 [GSK-269962A]
measured attribute: pIC50
data value: < 5.60
//
molecule: C/C=C(/C)C(=O)O[C@H]1C(C)=C2[C@H]([C@@H]1OC(=O)CCCCCCC)[C@@](C)(OC(C)=O)C[C@H](OC(=O)CCC)[C@@]1(O)[C@H]2OC(=O)[C@@]1(C)O
measured attribute: pIC50
data value: < 6.29
//
molecule: N#C/C(=C1/Nc2ccccc2S1)c1ccnc(NCCc2cccnc2)n1
measured attribute: pIC50
data value: < 5.10
//
molecule: CC(C)=CC[C@@H](O)C1=CC(=O)c2c(O)ccc(O)c2C1=O
measured attribute: pIC50
data value: 5.31

----------
Entries annotated with measured pIC50
# System: SIMA
# experiment notes: cells
# Format: functional, cell-based
# reported conditions: Homo sapiens
# Description: SANGER: Inhibition of human SIMA cell growth in a cell viability assay.
pIC50: −log10 of the molar value.

compound: CCn1c(-c2nonc2N)nc2cnc(Oc3cccc(NC(=O)c4ccc(OCCN5CCOCC5)cc4)c3)cc21 [GSK-269962A]
pIC50: < 5.60
//
compound: Cc1ccc(NC(=O)c2cccc(C(C)(C)C#N)c2)cc1Nc1ccc2ncn(C)c(=O)c2c1
pIC50: < 5.40
//
compound: Cc1[nH]c(/C=C2\C(=O)Nc3ccc(S(=O)(=O)Cc4c(Cl)cccc4Cl)cc32)c(C)c1C(=O)N1CCC[C@@H]1CN1CCCC1
pIC50: < 5.70
//
compound: COc1cc(C)c(Sc2cnc(NC(=O)c3ccc(CNC(C)C(C)(C)C)cc3)s2)cc1C(=O)N1CCN(C(C)=O)CC1 (stereo unspecified)
pIC50: < 4.99
//
compound: CCNc1cc(N[C@H]2CC[C@@H](O)CC2)nc(Nc2ccc3c(ccn3Cc3ccccc3)c2)n1
pIC50: < 5.29
//
compound: N#C/C(=C1/Nc2ccccc2S1)c1ccnc(NCCc2cccnc2)n1
pIC50: < 5.10

The measured values listed here are drawn from ChEMBL document CHEMBL1201861.
